Molecular target: T1, HIS-tagged extracellular domain of canine IL-4 receptor alpha chain (canine)
T1 construct: also called canine IL-4 receptor alpha chain ECD HIS-tagged protein; extracellular domain of canine IL-4Rα
T1 chain: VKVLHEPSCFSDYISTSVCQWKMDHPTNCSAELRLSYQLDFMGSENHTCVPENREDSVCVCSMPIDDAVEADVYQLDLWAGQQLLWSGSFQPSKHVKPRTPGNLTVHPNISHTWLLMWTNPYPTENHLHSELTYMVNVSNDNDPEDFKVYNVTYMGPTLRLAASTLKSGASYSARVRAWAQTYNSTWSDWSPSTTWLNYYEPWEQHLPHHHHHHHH
Assay: ELISA on plate-coated HIS-tagged canine IL-4Rα ECD, detection with HRP goat anti-mouse IgG
Method: This procedure was repeated as necessary to obtain adequate amounts of mAb from each hybridoma clone. Harvested cell suspensions were centrifuged and the supernatants were filtered through 0.2 micron filter membranes. […] Antibody concentrations were quantified using spectrophotometry. […] The color reaction is allowed to develop for 5-20 minutes at 37° C. prior to measuring absorbance at 650 nm. […]
Below: a set of entries, each annotated with reported EC50 (read off the curve).

| binder | EC50 (read off the curve) |
| --- | --- |
| 11D3 (antibody, V domains shown, member of the group m16; also called mAb 11D3; mouse anti-canine IL-4Rα monoclonal antibody 11D3) VH: QIQLVQSGPELKKPGETVKISCKASGYIFTTYGMYWVKQAPGKGLKWMGWINTYSGVPTYVDDFKGRFAFSLETSASTAYLQINNLKNEDTATYFCVVAGWFAYWGQGTLVTVSA VL: DIKMTQSPSSMYASLGERVTITCKASQDIKSYLSWFQQKPGKSPKTLIYRANILIDGVPSRFSGSGSGQDYSLTISSLEYEDMGIYYCLQYDEFPYTFGGGTKLEIK | ~0.1 nM |
| 1A9 (antibody, V domains shown, member of the group m16; also called mAb 1A9; mouse anti-canine IL-4Rα monoclonal antibody 1A9) VH: QVPLQQSGPELVKPGASVKISCKASGYAFSSSWMNWVKQRPGKGLEWIGRIYPGDGDTKYNGKFKGKATLTADKSSSTAYMQLSSLTSEDSAVYFCARDDYDEASWGQGTLVTVSA VL: DIVMTQSQKFMSTSVGDRVSITCKASQNVRSAVAWYQQKPGQSPKSLIYLASNRHTGVPDRFTGSGSGTDFTLTISNVQSEDLADYFCLQHWNYPFTFGSGTKLEIK | ~0.2 nM |
| 10F2 (antibody, V domains shown, member of the group m16; also called mAb 10F2; mouse anti-canine IL-4Rα monoclonal antibody 10F2) VH: QVHLKESGPGLVAPSQSLSITCTVSGFSLTSYGVSWVRQPPGEGLEWLGVIWGDGSTYFHSALISRLSISKDDSKSQVFLKLNSLQTDDTATYYCAKQGTIYDGYYNYAMDYWGQGTSVTVSS VL: DIVMSQSPSSLTVSVGEKVTMSCKSSQNLLYGGNQKNYLAWYQQKPGQSPKLLIYWASTRESGVPDRFTGSGSGTDFTLTISSVRAEDLAVYYCQQYYDYPYTFGGGTKLEIK | ~0.3 nM |

# evaluate next
query: Item under review: 1A3 (antibody, V domains shown, member of the group m16; also called mAb 1A3; mouse anti-canine IL-4Rα monoclonal antibody 1A3) VH: EVQLVESGGDLVKPGGSLKLSCAASGFTFSDFGMHWVRQAPEKGLGWVAYISSGSGTIYYADTVRGRFTISRDNVKNTLFLQMTSLRSEDTAMYYCVRGDLYYGSSFDAYWGRGTLVTVSA VL: QIVLSQSPAILSASPGEKVTMTCRASSSVSFMFWYQQKPGSSPKPWIYDTSNLASGVPARFSGSGSGTSYSLTISRVEAEDAATYYCQQWSSNPLTFGAGTKLELK . Reported EC50 (read off the curve)?
result: ~0.1 nM
